Species: Rattus norvegicus
Experiment: Open TG-GATES - Regimen: Daily Repeat
Format: toxicity, organism-based, Sprague-Dawley
Parameters: regimen Daily Repeat, gender Male, age 6 weeks
Details: in vivo, po, 1000 mg/kg, […], tissue Blood, route gavage, dose level High, time 7 day
Output 1 for Ret not less than 6%; output -1 otherwise.

Use these answered entries as a reference point.
Compound: COC1=CC(=O)C[C@@H](C)[C@]12Oc1c(Cl)c(OC)cc(OC)c1C2=O
Answer label: 1
//
Compound: CC(C)OC(=O)C(C)(C)Oc1ccc(C(=O)c2ccc(Cl)cc2)cc1 [FENOFIBRATE]
Answer label: -1
//
Compound: CCOc1ccc(NC(=O)CC(C)O)cc1 (stereo unspecified)
Answer label: 1
//
Compound: NC(N)=Nc1nc(CSCCC(N)=NS(N)(=O)=O)cs1
Answer label: -1
//
Compound: COc1ccc2[nH]c([S+]([O-])Cc3ncc(C)c(OC)c3C)nc2c1 (stereo unspecified)
Answer label: -1

Next, consider the following compound.
Prompt: Exam item: decide whether the reported Ret for CCOC(=O)CCC(=O)O[C@H]1[C@H](O[C@@H]2[C@@H](C)[C@H](O[C@H]3C[C@@](C)(OC)[C@@H](O)[C@H](C)O3)[C@@H](C)C(=O)O[C@H](CC)[C@@](C)(O)[C@H](O)[C@@H](C)C(=O)[C@H](C)C[C@@]2(C)O)O[C@H](C)C[C@@H]1N(C)C [ERYTHROMYCIN ETHYLSUCCINATE] is at least 6%.
Completion: -1
